type: physicochemical; settings: 100 ppm standard, 400 minutes
Measured Parameter: Amount Found (ppm)

1. CCCCOC(=O)C(=O)[C@@H](O)[C@H](O)[C@@H](O)CO [butyl-KLG, butyl 2-keto-L-gulonate]
100.1
2. O=C(O)C(=O)[C@@H](O)[C@H](O)[C@@H](O)CO [KLG, 2-keto-L-gulonic acid]
94.3
3. COC(=O)C(=O)[C@@H](O)[C@H](O)[C@@H](O)CO [MeKLG, methyl-2-keto-L-gulonate]
106.8
4. O=C1O[C@H]([C@@H](O)CO)C(O)=C1O [ASA, ascorbic acid]
96.6

----------
format: physicochemical; conditions: 50 ppm standard, 0 minutes
Measured Parameter: Amount Found (ppm)

1) O=C1O[C@H]([C@@H](O)CO)C(O)=C1O [ASA, ascorbic acid]
53.4
2) COC(=O)C(=O)[C@@H](O)[C@H](O)[C@@H](O)CO [MeKLG, methyl-2-keto-L-gulonate]
51.4
3) O=C(O)C(=O)[C@@H](O)[C@H](O)[C@@H](O)CO [KLG, 2-keto-L-gulonic acid]
51
4) CCCCOC(=O)C(=O)[C@@H](O)[C@H](O)[C@@H](O)CO [butyl-KLG, butyl 2-keto-L-gulonate]
50.6

----------
format: physicochemical; settings: 50 ppm standard, 715 minutes
Measured Parameter: Amount Found (ppm)

1) CCCCOC(=O)C(=O)[C@@H](O)[C@H](O)[C@@H](O)CO [butyl-KLG, butyl 2-keto-L-gulonate]
38.2
2) O=C(O)C(=O)[C@@H](O)[C@H](O)[C@@H](O)CO [KLG, 2-keto-L-gulonic acid]
52
3) O=C1O[C@H]([C@@H](O)CO)C(O)=C1O [ASA, ascorbic acid]
0
4) COC(=O)C(=O)[C@@H](O)[C@H](O)[C@@H](O)CO [MeKLG, methyl-2-keto-L-gulonate]
43

Sourced from patent US5817490A
